test: ELISA with seronegative / negative control sera (specificity); type: binding, human; settings: Table 8; serum 1794 (blood donor); Avidin
Ends that are not written are not given here. * marks the point of attachment. Biotin = O=C1N[C@H]2[C@H](CS[C@H]2CCCCC(=O)*)N1
PROPERTY_LABEL: optical density (450 nm)
Would you mind answering with just the numeric figure?

Supply measured optical density (450 nm) of Bio-Gly-Gly-Tyr-Asn-Lys-Arg-Lys-Arg-Ile-His-Ile-Gly-Pro-Gly-Arg-Ala-Phe-Tyr-Thr-Thr-Lys-Asn-Ile-Ile-Gly-NH2 (Biotin-GGYNKRKRIHIGPGRAFYTTKNIIG-NH2) [V3-mn Bio] in your reply. 0.091

Supply measured optical density (450 nm) of ETWKKPDYEPPVVHGCPLPP in your reply. 0.104

Supply measured optical density (450 nm) of PQRKTKRNTNRRPQDVKFPG in your reply. 0.153

Supply measured optical density (450 nm) of Bio-Gly-Gly-Gly-Ser-Trp-Gly-Cys-Ala-Phe-Arg-Gln-Val-Cys-NH2 (Biotin-GGGSWGCAFRQVC-NH2; cysteine pairing not given here) [TM-HIV-2 Bio] in your reply. 0.090

Supply measured optical density (450 nm) of IIPDREVLYREFDEMEECSQ in your reply. 0.098

Supply measured optical density (450 nm) of Bio-Gly-Gly-Gly-Ile-Trp-Gly-Cys-Ser-Gly-Lys-Leu-Ile-Cys-NH2 (Biotin-GGGIWGCSGKLIC-NH2; cysteine pairing not given here) [TM-HIV-1 Bio] in your reply. 0.124

====

Item-by-item account of optical density (450 nm)
tested on: antibodies in antisera from HIV-2 infected persons; test: ELISA with HIV-2 antibody-positive sera (biotinylated peptides on streptavidin- or avidin-coated plates, unbiotinylated peptides coated directly); type: binding, human; conditions: Table 1; serum 53-3, HIV-2 positive
* marks the point of attachment. Biotin = O=C1N[C@H]2[C@H](CS[C@H]2CCCCC(=O)*)N1

# count of solved cases: 2
>  <SUBSTANCE>
Bio-Gly-Gly-Gly-Ser-Trp-Gly-Cys-Ala-Phe-Arg-Gln-Val-Cys-NH2 (Biotin-GGGSWGCAFRQVC-NH2; cysteine pairing not given here) [TM-HIV-2 Bio]

>  <READING>
2.365

$$$$
>  <SUBSTANCE>
Ac-Ile-Trp-Gly-Cys-Ser-Gly-Lys-Leu-Ile-Cys-NH2 (Ac-IWGCSGKLIC-NH2; cysteine pairing not given here) [TM-HIV-1, unbiotinylated N-acetylated decamer of the HIV-1 transmembrane protein]

>  <READING>
0.000

$$$$

Supply measured optical density (450 nm) of Bio-Gly-Gly-Gly-Ile-Trp-Gly-Cys-Ser-Gly-Lys-Leu-Ile-Cys-NH2 (Biotin-GGGIWGCSGKLIC-NH2; cysteine pairing not given here) [TM-HIV-1 Bio] in your reply. 0.000

Supply measured optical density (450 nm) of Ac-Ser-Trp-Gly-Cys-Ala-Phe-Arg-Gln-Val-Cys-NH2 (Ac-SWGCAFRQVC-NH2; cysteine pairing not given here) [TM-HIV-2, unbiotinylated N-acetylated decamer of the HIV-2 transmembrane protein] in your reply. 0.000

====

system: antibodies in sera from HCV-seropositive donors; assay: ELISA with HCV antibody-positive sera (biotinylated peptides on streptavidin- or avidin-coated plates, unbiotinylated peptides coated directly); format: binding, human; conditions: Table 8; serum 8269 (HCV); Avidin
Ends that are not written are not given here. * marks the point of attachment. Biotin = O=C1N[C@H]2[C@H](CS[C@H]2CCCCC(=O)*)N1
PROPERTY_LABEL: optical density (450 nm)

# count of solved cases: 5
>  <SUBSTANCE>
IIPDREVLYREFDEMEECSQ

>  <SYSTEM_NAME>
antibodies in sera from HCV-seropositive donors

>  <optical density (450 nm)>
0.051

$$$$
>  <SUBSTANCE>
PQRKTKRNTNRRPQDVKFPG

>  <SYSTEM_NAME>
antibodies in sera from HCV-seropositive donors

>  <optical density (450 nm)>
1.213

$$$$
>  <SUBSTANCE>
Bio-Gly-Gly-Tyr-Asn-Lys-Arg-Lys-Arg-Ile-His-Ile-Gly-Pro-Gly-Arg-Ala-Phe-Tyr-Thr-Thr-Lys-Asn-Ile-Ile-Gly-NH2 (Biotin-GGYNKRKRIHIGPGRAFYTTKNIIG-NH2) [V3-mn Bio]

>  <SYSTEM_NAME>
antibodies in sera from HCV-seropositive donors

>  <optical density (450 nm)>
0.056

$$$$
>  <SUBSTANCE>
Bio-Gly-Gly-Gly-Ser-Trp-Gly-Cys-Ala-Phe-Arg-Gln-Val-Cys-NH2 (Biotin-GGGSWGCAFRQVC-NH2; cysteine pairing not given here) [TM-HIV-2 Bio]

>  <SYSTEM_NAME>
antibodies in sera from HCV-seropositive donors

>  <optical density (450 nm)>
0.049

$$$$
>  <SUBSTANCE>
ETWKKPDYEPPVVHGCPLPP

>  <SYSTEM_NAME>
antibodies in sera from HCV-seropositive donors

>  <optical density (450 nm)>
1.513

$$$$

Supply measured optical density (450 nm) of Bio-Gly-Gly-Gly-Ile-Trp-Gly-Cys-Ser-Gly-Lys-Leu-Ile-Cys-NH2 (Biotin-GGGIWGCSGKLIC-NH2; cysteine pairing not given here) [TM-HIV-1 Bio] in your reply. 0.053

====

system: antibodies in sera from HCV-seropositive donors; test: ELISA with HCV antibody-positive sera (biotinylated peptides on streptavidin- or avidin-coated plates, unbiotinylated peptides coated directly); type: binding, human; conditions: Table 12; serum 8377; biotinylated 20-mers
Ends that are not written are not given here.
The threshold is 2. Values of PEPTIDE ELISA (O.D.) beneath it are tagged Fulfilled; values meeting or exceeding it are tagged Not fulfilled.

Worked examples, 3 substances total:
>  <SUBSTANCE>
SQHLPYIEQGMMLAEQFKQK

>  <CLASSIFICATION>
Not fulfilled

$$$$
>  <SUBSTANCE>
ETWKKPDYEPPVVHGCPLPP

>  <CLASSIFICATION>
Fulfilled

$$$$
>  <SUBSTANCE>
Leu-Arg-Lys-Ser-Arg-Arg-Phe-Ala-Gln-Ala-Leu-Pro-Val-Trp-Ala-Arg-Pro-Asp-Tyr-Asn [Peptide XVI] (LRKSRRFAQALPVWARPDYN; printed: Leu-Arg-Lys-Ser-Arg-Arg-Phe-Ala-Gln-Ala-Leu-Pro-Val-Trp-Ala-Arg-Pro-Asp-Tyr-Asn)

>  <CLASSIFICATION>
Not fulfilled

$$$$

Determine if TRKTSERSQPRGRRQPIPKV shows PEPTIDE ELISA (O.D.) strictly lower than 2. Fulfilled

Determine if PQRKTKRNTNRRPQDVKFPG shows PEPTIDE ELISA (O.D.) strictly lower than 2. Not fulfilled

Determine if IIPDREVLYREFDEMEECSQ shows PEPTIDE ELISA (O.D.) strictly lower than 2. Not fulfilled

Determine if RNTNRRPQDVKFPGGGQIVG shows PEPTIDE ELISA (O.D.) strictly lower than 2. Not fulfilled

====

tested on: antibodies in sera from HCV-seropositive donors; assay: ELISA with HCV antibody-positive sera (biotinylated peptides on streptavidin- or avidin-coated plates, unbiotinylated peptides coated directly); assay type: binding, human; settings: Table 8; serum 8290 (HCV); Avidin
Ends that are not written are not given here. * marks the point of attachment. Biotin = O=C1N[C@H]2[C@H](CS[C@H]2CCCCC(=O)*)N1
PROPERTY_LABEL: optical density (450 nm)
Would you mind answering with just the numeric figure?

# count of solved cases: 5
>  <SUBSTANCE>
Bio-Gly-Gly-Tyr-Asn-Lys-Arg-Lys-Arg-Ile-His-Ile-Gly-Pro-Gly-Arg-Ala-Phe-Tyr-Thr-Thr-Lys-Asn-Ile-Ile-Gly-NH2 (Biotin-GGYNKRKRIHIGPGRAFYTTKNIIG-NH2) [V3-mn Bio]

>  <optical density (450 nm)>
0.050

$$$$
>  <SUBSTANCE>
IIPDREVLYREFDEMEECSQ

>  <optical density (450 nm)>
0.048

$$$$
>  <SUBSTANCE>
Bio-Gly-Gly-Gly-Ile-Trp-Gly-Cys-Ser-Gly-Lys-Leu-Ile-Cys-NH2 (Biotin-GGGIWGCSGKLIC-NH2; cysteine pairing not given here) [TM-HIV-1 Bio]

>  <optical density (450 nm)>
0.045

$$$$
>  <SUBSTANCE>
ETWKKPDYEPPVVHGCPLPP

>  <optical density (450 nm)>
2.323

$$$$
>  <SUBSTANCE>
Bio-Gly-Gly-Gly-Ser-Trp-Gly-Cys-Ala-Phe-Arg-Gln-Val-Cys-NH2 (Biotin-GGGSWGCAFRQVC-NH2; cysteine pairing not given here) [TM-HIV-2 Bio]

>  <optical density (450 nm)>
0.047

$$$$

Supply measured optical density (450 nm) of PQRKTKRNTNRRPQDVKFPG in your reply. 0.060
